experiment: Single-dose plasma pharmacokinetics of oral ixazomib by hepatic function group; format: in vivo, human; settings: human, plasma, po, 2.3 mg
quantity name: Tmax (h)
# value in h; strip the unit string

Bench note: what Tmax did CC(C)C[C@H](NC(=O)CNC(=O)c1cc(Cl)ccc1Cl)B(O)O show? 1.5

====

assay: Single-dose plasma pharmacokinetics of oral ixazomib by hepatic function group; assay type: in vivo, human; details: human, plasma, oral, 2.3 mg
quantity name: AUC(0-t) (ng·h/mL)
# value in ng·h/mL; strip the unit string

Bench note: what AUC(0-t) did CC(C)C[C@H](NC(=O)CNC(=O)c1cc(Cl)ccc1Cl)B(O)O [ixazomib] show? 846

====

assay: Single-dose plasma pharmacokinetics of oral ixazomib by hepatic function group; format: in vivo, human; conditions: human, plasma, po
quantity name: Tmax

Bench note: what Tmax did CC(C)C[C@H](NC(=O)CNC(=O)c1cc(Cl)ccc1Cl)B(O)O [ixazomib] show? 0.95 to 1.5 h

====

assay: Single-dose plasma pharmacokinetics of oral ixazomib by hepatic function group; type: in vivo, human; conditions: human, plasma, oral, 1.5 mg
quantity name: AUC(0-t) (ng·h/mL)
# value in ng·h/mL; strip the unit string

Bench note: what AUC(0-t) did CC(C)C[C@H](NC(=O)CNC(=O)c1cc(Cl)ccc1Cl)B(O)O show? 489

====

test: Single-dose plasma pharmacokinetics of oral ixazomib by hepatic function group; type: in vivo, human; details: human, plasma, po, 4 mg
quantity name: Tmax (min)
# value in min; strip the unit string

Bench note: what Tmax did CC(C)C[C@H](NC(=O)CNC(=O)c1cc(Cl)ccc1Cl)B(O)O show? 57
